Quick reference: MIC of the listed items.
test system: Mycobacterium tuberculosis; test: Antimycobacterial activity against multi drug resistant Mycobacterium tuberculosis Praha 4 after 14 days; format: functional; conditions: Praha 4, 336 h
attribute-measured: MIC

smiles-string	target-of-assay	attribute-measured	observed-measurement
O=C(NCCc1ccccc1)Oc1ccc(Cl)cc1C(=O)Nc1ccc(C(F)(F)F)cc1	Mycobacterium tuberculosis	MIC	2 µM
O=C(NC1CCCCC1)Oc1ccc(Cl)cc1C(=O)Nc1ccc(C(F)(F)F)cc1	Mycobacterium tuberculosis	MIC	0.5 µM
O=C(NC12CC3CC(CC(C3)C1)C2)Oc1ccc(Cl)cc1C(=O)Nc1ccc(C(F)(F)F)cc1	Mycobacterium tuberculosis	MIC	0.5 µM
O=C(Nc1ccccc1)Oc1ccc(Cl)cc1C(=O)Nc1ccc(C(F)(F)F)cc1	Mycobacterium tuberculosis	MIC	0.5 µM

###

test system: Mycobacterium tuberculosis; experiment: Antimycobacterial activity against multi drug resistant Mycobacterium tuberculosis 9449/2006 after 14 days; type: functional; settings: 9449/2006, 336 h
attribute-measured: MIC (µM)

smiles-string	attribute-measured	quantity-unit	observed-measurement
O=C(Nc1ccccc1)Oc1ccc(Cl)cc1C(=O)Nc1ccc(C(F)(F)F)cc1	MIC	µM	1
O=C(NC1CCCCC1)Oc1ccc(Cl)cc1C(=O)Nc1ccc(C(F)(F)F)cc1	MIC	µM	0.5
O=C(NCCc1ccccc1)Oc1ccc(Cl)cc1C(=O)Nc1ccc(C(F)(F)F)cc1	MIC	µM	2
O=C(NC12CC3CC(CC(C3)C1)C2)Oc1ccc(Cl)cc1C(=O)Nc1ccc(C(F)(F)F)cc1	MIC	µM	1

###

tested on: Mycobacterium tuberculosis; assay: Antimycobacterial activity against multi drug resistant Mycobacterium tuberculosis 9449/2006 after 21 days; type: functional; settings: 9449/2006, 504 h

smiles-string	MIC (µM)
O=C(Nc1ccccc1)Oc1ccc(Cl)cc1C(=O)Nc1ccc(C(F)(F)F)cc1	1
O=C(NC12CC3CC(CC(C3)C1)C2)Oc1ccc(Cl)cc1C(=O)Nc1ccc(C(F)(F)F)cc1	1
O=C(NC1CCCCC1)Oc1ccc(Cl)cc1C(=O)Nc1ccc(C(F)(F)F)cc1	1
O=C(NCCc1ccccc1)Oc1ccc(Cl)cc1C(=O)Nc1ccc(C(F)(F)F)cc1	2

###

Quick reference: MIC of the listed items.
test system: Mycobacterium tuberculosis; test: Antimycobacterial activity against multi drug resistant Mycobacterium tuberculosis Praha 4 after 21 days; format: functional; settings: Praha 4, 504 h
attribute-measured: MIC

smiles-string	observed-measurement
O=C(NCCc1ccccc1)Oc1ccc(Cl)cc1C(=O)Nc1ccc(C(F)(F)F)cc1	2 µM
O=C(NC1CCCCC1)Oc1ccc(Cl)cc1C(=O)Nc1ccc(C(F)(F)F)cc1	1 µM
O=C(NC12CC3CC(CC(C3)C1)C2)Oc1ccc(Cl)cc1C(=O)Nc1ccc(C(F)(F)F)cc1	1 µM
O=C(Nc1ccccc1)Oc1ccc(Cl)cc1C(=O)Nc1ccc(C(F)(F)F)cc1	1 µM

###

system: Mycobacterium tuberculosis; test: Antimycobacterial activity against multi drug resistant Mycobacterium tuberculosis Praha 1 after 14 days; format: functional; settings: Praha 1, 336 h
Quick reference: MIC of the listed items.

smiles-string	MIC [µM]
O=C(NC1CCCCC1)Oc1ccc(Cl)cc1C(=O)Nc1ccc(C(F)(F)F)cc1	0.5
O=C(Nc1ccccc1)Oc1ccc(Cl)cc1C(=O)Nc1ccc(C(F)(F)F)cc1	0.5
O=C(NC12CC3CC(CC(C3)C1)C2)Oc1ccc(Cl)cc1C(=O)Nc1ccc(C(F)(F)F)cc1	0.5
O=C(NCCc1ccccc1)Oc1ccc(Cl)cc1C(=O)Nc1ccc(C(F)(F)F)cc1	1
